Please go through the items and note down their pIC50.
- measurement notes: Inhibition of chemotaxis in human MCP1 monocytes
Note: pIC50 values are expressed as the negative base-10 logarithm of concentration in M.

Entry CC(C)C[C@]1(C(=O)NCc2cc(F)cc(C(F)(F)F)c2)CC[C@@H](N2CC[C@]3(C=Cc4ccccc43)[C@@H](C)C2)C1 — recorded pIC50 = 9.49

Consider CC(C)[C@]1(C(=O)NCc2cc(F)cc(C(F)(F)F)c2)CC[C@@H](N2CC[C@]3(C=Cc4ccccc43)[C@@H](C)C2)C1 . Its measured pIC50 is 9.82

Per the records, this molecule ( C[C@H]1CN([C@@H]2CC[C@@](C(=O)NCc3cc(F)cc(C(F)(F)F)c3)(C3CC3)C2)CC[C@]12C=Cc1ccccc12 ) has pIC50 equal to 9.64
